# system.under.test: T1, Rhesus macaque CD4-HIS (Acro Biosystems, Cat. CD4-C52H7) (rhesus macaque, UniProt P16003 26-390)
# T1 construct: Bought reagent; also called Rhesus CD4; rhesus CD4-HIS; not shown: His tag
# assay.comment: BLI (Octet Red384); Ab on anti-mouse Fc (AMC) sensor; rhesus CD4-HIS 100/50/25 nM; global 1:1 fit;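 further: antibodies loaded at 10 µg/mL, an unrelated mouse-derived antibody served as internal reference, curves fit over association and dissociation phases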
observation.type: koff (s⁻¹)
Numbers only, in s⁻¹.

Sample records with koff:
75110_09G15A (antibody, V domains shown, Tested as antibody purified from AlivaMab Mouse hybridoma supernatant (human variable domains, kappa; mouse Fc, captured on anti-mouse IgG Fc sensors); also called ADS75110 purified AMM Ab) VH: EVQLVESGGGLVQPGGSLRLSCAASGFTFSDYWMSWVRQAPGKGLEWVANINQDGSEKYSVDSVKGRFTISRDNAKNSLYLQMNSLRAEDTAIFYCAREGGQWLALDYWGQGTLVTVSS VL: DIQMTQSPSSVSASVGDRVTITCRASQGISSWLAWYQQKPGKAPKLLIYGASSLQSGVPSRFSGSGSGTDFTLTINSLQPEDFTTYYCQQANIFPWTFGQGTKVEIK
0.003
75110_08D24A (antibody, V domains shown, Tested as antibody purified from AlivaMab Mouse hybridoma supernatant (human variable domains, kappa; mouse Fc, captured on anti-mouse IgG Fc sensors); also called ADS75110 purified AMM Ab) VH: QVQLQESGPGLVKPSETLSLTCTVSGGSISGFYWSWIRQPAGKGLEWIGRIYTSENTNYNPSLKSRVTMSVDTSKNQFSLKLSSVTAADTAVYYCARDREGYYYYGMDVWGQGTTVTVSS VL: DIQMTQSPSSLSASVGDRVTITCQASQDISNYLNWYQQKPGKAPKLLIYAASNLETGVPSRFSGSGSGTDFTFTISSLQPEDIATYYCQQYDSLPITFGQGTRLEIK
0.0017

Please look at the following binder next.
Query: koff; subject: 75110_06K03A (antibody, V domains shown, Tested as antibody purified from AlivaMab Mouse hybridoma supernatant (human variable domains, kappa; mouse Fc, captured on anti-mouse IgG Fc sensors); also called ADS75110 purified AMM Ab) VH: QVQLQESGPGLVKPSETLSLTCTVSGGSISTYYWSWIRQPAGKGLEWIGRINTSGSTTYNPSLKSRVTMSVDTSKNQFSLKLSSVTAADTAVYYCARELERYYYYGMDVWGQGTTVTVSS VL: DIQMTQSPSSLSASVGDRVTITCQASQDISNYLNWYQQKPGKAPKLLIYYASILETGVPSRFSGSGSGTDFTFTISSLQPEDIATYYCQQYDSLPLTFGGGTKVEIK
0.00035
